# Type: physicochemical
# Condition description: Isolyte S media, pH 7.4, saline or isotonic, thermodynamic from solid, Isolyte S, pH 7.4 media; room temperature; absorbance at 447 nm; read-out: Concentration (447) of saturated solution
Measured quantity: solubility thermodynamic at 1 h (µg/mL)

# Compound, Unit annotation, Reading
data = [
    ("Cc1cc2nc3c(=O)[nH]c(=O)nc-3n(C[C@H](O)[C@H](O)[C@H](O)CO)c2cc1C [7,8-dimethyl-10-ribityl isoalloxazine]", "µg/mL", 40.9),
]

* * *

# Assay type: physicochemical
# Condition description: ACD-A Anticoagulant, aqueous buffer, thermodynamic from solid, ACD-A Anticoagulant; absorbance at 373 nm; read-out: Concentration (373) of saturated solution
Measured quantity: solubility thermodynamic at 1 h

# Test smiles, Reading
data = [
    ("Cc1cc2nc3c(=O)[nH]c(=O)nc-3n(C[C@H](O)[C@H](O)[C@H](O)CO)c2cc1C", "63 µg/mL"),
]

Entry source: patent US6548241B1
